- System: X. fastidiosa subsp. fastidiosa IVIA 5387.2
- conditionLabel: 50 µM
Square brackets hold non-standard residues; d marks the D form. Peptide text beside a SMILES is read from it. * marks the point of attachment. Lauroyl = CCCCCCCCCCCC(=O)*; Butyryl = CCCC(=O)*
Listing of entries alongside the reported Bactericidal activity: Reduction in viability (Log N0/N).
readout: Bactericidal activity: Reduction in viability (Log N0/N)

{"columns": ["compound", "measurementTarget", "valueMeasured"],
 "data": [
  ["CCCCCCCCCCCC(=O)N[C@H](C(=O)N[C@@H](CC(C)C)C(=O)N1CCC[C@H]1C(=O)N[C@H](Cc1ccccc1)C(=O)N[C@@H](CCCCN)C(=O)N[C@H](Cc1ccccc1)C(=O)N1CCC[C@H]1C(=O)N[C@H](Cc1ccccc1)C(=O)N[C@H](Cc1ccccc1)C(=O)N1CCC[C@H]1C(=O)N[C@H](Cc1ccccc1)C(=O)N[C@@H](CCCNC(=N)N)C(=O)N[C@@H](CCCNC(=N)N)C(N)=O)[C@@H](C)CC [BP528] (Lauroyl-ILP[dF]K[dF]P[dF][dF]P[dF]RR-NH2)", "X. fastidiosa subsp. fastidiosa IVIA 5387.2", "0.61 ± 0.12 Log N0/N"],
  ["CCCC(=O)N[C@H](C(=O)N[C@@H](CC(C)C)C(=O)N1CCC[C@H]1C(=O)N[C@H](Cc1ccccc1)C(=O)N[C@@H](CCCCN)C(=O)N[C@H](Cc1ccccc1)C(=O)N1CCC[C@H]1C(=O)N[C@H](Cc1ccccc1)C(=O)N[C@H](Cc1ccccc1)C(=O)N1CCC[C@H]1C(=O)N[C@H](Cc1ccccc1)C(=O)N[C@@H](CCCNC(=N)N)C(=O)N[C@@H](CCCNC(=N)N)C(N)=O)[C@@H](C)CC [BP526] (Butyryl-ILP[dF]K[dF]P[dF][dF]P[dF]RR-NH2)", "X. fastidiosa subsp. fastidiosa IVIA 5387.2", "0.56 ± 0.03 Log N0/N"],
  ["CC[C@H](C)[C@H](NC(=O)[C@H](CCCNC(=N)N)NC(=O)[C@@H](NC(=O)[C@H](C)NC(=O)[C@@H](NC(=O)[C@@H](NC(=O)[C@H](CC(C)C)NC(=O)[C@H](CCCNC(=N)N)NC(=O)[C@@H](N)C(C)C)[C@@H](C)CC)C(C)C)C(C)C)C(=O)N[C@@H](Cc1c[nH]c2ccccc12)C(=O)N[C@@H](CCCNC(=N)N)C(=O)N[C@@H](CCCNC(=N)N)C(N)=O [IDR-1018] (H-VRLIVAVRIWRR-NH2; N-terminus and C-terminus assumed)", "X. fastidiosa subsp. fastidiosa IVIA 5387.2", "1.80 ± 0.01 Log N0/N"],
  ["CC[C@H](C)[C@H](NC(=O)[C@H](CCCNC(=N)N)NC(=O)[C@H](CCCNC(=N)N)NC(=O)[C@H](CC(C)C)NC(=O)[C@H](Cc1c[nH]c2ccccc12)NC(=O)[C@H](C)NC(=O)[C@H](CCCCN)NC(=O)[C@@H](NC(=O)[C@H](CCCNC(=N)N)NC(=O)[C@H](CCCNC(=N)N)NC(=O)[C@H](CC(C)C)NC(=O)[C@@H](N)Cc1c[nH]c2ccccc12)[C@@H](C)CC)C(=O)N[C@@H](CCCCN)C(=O)N[C@@H](C)C(=O)O [RR4-OH]", "X. fastidiosa subsp. fastidiosa IVIA 5387.2", "1.94 ± 0.03 Log N0/N"]
]}
